tested on: rodent lifetime carcinogenesis bioassay, tumor incidence TD50; test: carcinogenic potency in animals, long-term in vivo studies, CPDB compilation (AID 1745844); conditions: mouse; strain B6C3F1; females; in feed; site: liver; lesion: hepatocellular carcinoma; dosed 101 weeks; study length 101 weeks
outcomeMeasure: TD50

Q) For the compound Cc1cc(C)c(N)cc1C , what TD50 is on record?
A) 6.13 mg/kg/day

Q) Next entry: Cc1ccc(N)cc1N
A) 26.7 mg/kg/day

----------
test system: rodent lifetime carcinogenesis bioassay, tumor incidence TD50; assay: carcinogenic potency in animals, long-term in vivo studies, CPDB compilation (AID 1745844); conditions: rat; strain Osborne-Mendel; females; in feed; site: liver; lesion: neoplastic nodule; dosed 80 weeks; study length 111 weeks
outcomeMeasure: TD50

Q) GET /values?readout=TD50&item= Nc1c(Cl)c(Cl)nc(C(=O)O)c1Cl
A) 1700 mg/kg/day
